Source listed as patent US20240025892A1.

system: RANKL; experiment: RANKL gene expression in Ocy454 cells (RT-qPCR); details: maximal RANKL fold induction versus DMSO, four hours;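 further: Ocy454 cells moved to 37 °C for osteocytic differentiation before compound exposure, RANKL mRNA by SYBR Green qRT-PCR, 2^−ΔΔCT with β-actin normalization, duplicate wells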
// values below are reported RANKL Fold Induction

{"COMPOUND": "N#Cc1ccc(-n2cnc3cc(C(=O)NCc4cn5ccccc5n4)ccc32)cc1 [Example 33]", "RANKL Fold Induction, fold": 0.92}
{"COMPOUND": "CCn1cc(-c2ccc3c(-c4ccc(C#N)cc4)cnn3c2)cn1 [Example 52]", "RANKL Fold Induction, fold": 19.99}
{"COMPOUND": "N#Cc1ccc(-c2cnc3cc(C(=O)NCc4nc5ccccc5[nH]4)ccn23)cc1 [Example 22]", "RANKL Fold Induction, fold": 1.19}
{"COMPOUND": "N#Cc1ccc(-c2cnc3cc(-c4cnn(C5COC5)c4)ccn23)cc1 [Example 50]", "RANKL Fold Induction, fold": 15.84}
{"COMPOUND": "CCn1cc(-c2cnc3c(-c4ccc(C#N)cc4)cnn3c2)cn1 [Example 63]", "RANKL Fold Induction, fold": 0.89}
{"COMPOUND": "Cc1ccc(CCOc2ccn3c(-c4ccc(C#N)cc4)cnc3c2)cn1 [Example 41]", "RANKL Fold Induction, fold": 2.61}
{"COMPOUND": "CN1CC(Oc2cccc3ccc(-n4cnc5cc(OCC6(C)COC6)ccc54)nc23)C1 [Example 11]", "RANKL Fold Induction, fold": 1.38}
{"COMPOUND": "N#Cc1ccc(-c2cnn3cc(C(=O)NCc4cccnc4)ccc23)cc1 [Example 37]", "RANKL Fold Induction, fold": 1.17}
{"COMPOUND": "COCCN1CCC12CCN(c1cccc3ccc(-n4cnc5cc(OCC6(C)COC6)ccc54)nc13)CC2 [Example 12]", "RANKL Fold Induction, fold": 62.52}
{"COMPOUND": "CCn1cc(-c2ccc3c(c2)ncn3-c2ccc(C#N)cc2)cn1 [Example 43]", "RANKL Fold Induction, fold": 7.09}
{"COMPOUND": "CCc1nc(-c2c(OC)cc(-c3cnc4cc(-c5cnn(C)c5)ccn34)cc2OC)no1 [Example 61]", "RANKL Fold Induction, fold": 19.00}
{"COMPOUND": "COc1cc(-c2cnc3cc(C(=O)NCc4ccc(C)nc4)ccn23)cc(OC)c1C(=O)NCC(F)(F)F [Example 68]", "RANKL Fold Induction, fold": 2.88}
{"COMPOUND": "CCn1cc(-c2ccn3c(-c4ccc(C#N)cc4)cnc3c2)cn1 [Example 45]", "RANKL Fold Induction, fold": 9.41}
{"COMPOUND": "CN(Cc1nc2ccccc2n1C)C(=O)c1ccn2c(-c3ccc(C#N)cc3)cnc2c1 [Example 29]", "RANKL Fold Induction, fold": 1.48}
{"COMPOUND": "Cn1cnc(-c2cccc3ccc(-n4cnc5cc(OCC6(C)COC6)ccc54)nc23)c1 [Example 18]", "RANKL Fold Induction, fold": 7.49}
{"COMPOUND": "CC1(COc2ccn3c(-c4ccc(C#N)cc4)cnc3c2)COC1 [Example 38]", "RANKL Fold Induction, fold": 0.37}
{"COMPOUND": "N#Cc1ccc(-c2cnn3cc(-c4cnn(C5CC5)c4)cnc23)cc1 [Example 64]", "RANKL Fold Induction, fold": 0.47}
{"COMPOUND": "CCn1cc(-c2ccn3c(-c4ccc(-c5nnc(C)o5)cc4)cnc3c2)cn1 [Example 56]", "RANKL Fold Induction, fold": 2.18}
{"COMPOUND": "CCc1nnc(-c2c(OC)cc(-c3cnc4cc(-c5cnn(C6CC6)c5)ccn34)cc2OC)o1 [Example 55]", "RANKL Fold Induction, fold": 22.80}
{"COMPOUND": "N#Cc1ccc(-c2cnn3cc(-c4cnn(C5CC5)c4)ccc23)cc1 [Example 54]", "RANKL Fold Induction, fold": 9.07}
{"COMPOUND": "N#Cc1ccc(-c2cnc3cc(C(=O)NCc4cn5ccccc5n4)ccn23)cc1 [Example 24]", "RANKL Fold Induction, fold": 2.24}
{"COMPOUND": "COc1cc(-c2cnc3cc(-c4cnn(C)c4)ccn23)cc(OC)c1-c1nnc(C2CC2)o1 [Example 60]", "RANKL Fold Induction, fold": 307.25}
{"COMPOUND": "N#Cc1ccc(-n2cnc3cc(-c4cnn(C5CC5)c4)ccc32)cc1 [Example 44]", "RANKL Fold Induction, fold": 3.07}
{"COMPOUND": "CC1(COc2ccc3c(c2)ncn3-c2ccc3cccc(OC4CNC4)c3n2)COC1 [Example 9]", "RANKL Fold Induction, fold": 9.69}
{"COMPOUND": "CC1(COc2ccc3c(c2)ncn3-c2ccc3cccc(N4CCCC4CN)c3n2)COC1 (centres unmarked) [Example 8]", "RANKL Fold Induction, fold": 17.47}
{"COMPOUND": "CCc1nnc(-c2c(F)cc(-c3cnc4cc(-c5cnn(C)c5)ccn34)cc2F)o1 [Example 58]", "RANKL Fold Induction, fold": 1.26}
{"COMPOUND": "N#Cc1ccc(-c2cnn3cc(C(=O)NCc4nc5cccnc5[nH]4)ccc23)cc1 [Example 35]", "RANKL Fold Induction, fold": 0.39}
{"COMPOUND": "NC1CCN(c2cccc3ncc(-n4cnc5cc(OCC6CS(=O)(=O)C6)ccc54)nc23)CC1 [Example 14]", "RANKL Fold Induction, fold": 1.26}
{"COMPOUND": "CCn1cc(-c2ccn3c(-c4ccc(C#N)nc4)cnc3c2)cn1 [Example 46]", "RANKL Fold Induction, fold": 3.44}
